Source listed as ChEMBL document CHEMBL3102737.

Tested on: HeLa
Test: Protein binding in human HeLa cells at 1 mM incubated for 10 mins under dark by fluorescence microscopic analysis
Format: ADME, cell-based
Settings: 1000 µM
observable: PB

Examples from the recorded data:
{"columns": ["sampleSmiles", "PB"],
 "data": [
  ["CCn1c(=O)ccc2c3c(ccc21)N(C)C(C)(C)CC3=O", "Active"],
  ["CCN1c2ccc3oc(=O)ccc3c2C(=O)CC1(C)C", "Active"],
  ["CN1c2ccc3oc(=O)ccc3c2C(=O)CC1(C)C", "Not Active"],
  ["CCN1c2ccc3c(ccc(=O)n3CC)c2C(=O)CC1(C)C", "Active"]
]}

I'm hoping you can list PB for every molecule here, please.
1. CCn1c(=O)ccc2c3c(ccc21)NC(C)(C)CC3=O
2. CN1c2ccc3c(ccc(=O)n3C)c2C(=O)CC1(C)C
3. CC1(C)CC(=O)c2c(ccc3oc(=O)ccc23)N1
4. CCN1c2ccc3c(ccc(=O)n3C)c2C(=O)CC1(C)C
5. Cn1c(=O)ccc2c3c(ccc21)NC(C)(C)CC3=O

[reply]
["Active", "Active", "Active", "Active", "Not Active"]
